Entry source: patent US20150065509A1

Molecular target: UniProtKB Q81R22
Sequence (Q81R22 1-162): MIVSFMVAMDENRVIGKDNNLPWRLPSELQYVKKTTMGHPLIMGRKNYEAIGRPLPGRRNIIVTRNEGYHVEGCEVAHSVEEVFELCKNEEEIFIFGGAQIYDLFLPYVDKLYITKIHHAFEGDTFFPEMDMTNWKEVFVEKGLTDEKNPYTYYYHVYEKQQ
Test: biochemical
Format: biochemical, B. anthracis Sterne
Settings: read-out: IC50
OBSERVABLE: IC50 (µM)
Use µM as the unit, but write only the number.

| COMPOUND | IC50 / µM |
| --- | --- |
| CCCc1nc(N)nc(N)c1Cc1cc(/C=C/C(=O)N2N=Cc3ccccc3C2C=C(C)C)c(OC)c(OC)c1 (stereo not shown) [Compound 15] | 18 |
| COc1cc(Cc2c(C)nc(N)nc2N)cc(/C=C/C(=O)N2N=Cc3ccccc3C2C=C(C)C)c1OC (stereo not shown) [Compound 13] | 0.102 |
| CCc1nc(N)nc(N)c1Cc1cc(/C=C/C(=O)N2N=Cc3ccccc3C2C=C(C)C)c(OC)c(OC)c1 (stereo not shown) [Compound 14] | 0.181 |

Kindly consider the entry below.
Identify measured IC50 associated with CCCC1c2ccccc2C=NN1C(=O)/C=C/c1cc(Cc2c(N)nc(N)nc2CC)cc(OC)c1OC (stereo not shown) [Compound 11]
17.4

====

Catalogue of MIC (Minimum Inhibitory Concentration) readings, one per entry.
System: B. anthracis Sterne
Assay: microbe, parasite or virus in culture
Format: cell-based
Please don't drop the unit; write it after the number.

| COMPOUND | TARGET_UNDER_TEST | OBSERVABLE | RESULT |
| --- | --- | --- | --- |
| COc1cc(Cc2c(C)nc(N)nc2N)cc(/C=C/C(=O)N2N=Cc3ccccc3C2C=C(C)C)c1OC (stereo not shown) | B. anthracis Sterne | MIC (Minimum Inhibitory Concentration) | 4000 µg/mL |

Provide MIC (Minimum Inhibitory Concentration), recorded with B. anthracis Sterne, of CCc1nc(N)nc(N)c1Cc1cc(/C=C/C(=O)N2N=Cc3ccccc3C2C=C(C)C)c(OC)c(OC)c1 (stereo not shown)
4000 µg/mL

Provide MIC (Minimum Inhibitory Concentration), recorded with B. anthracis Sterne, of CCCC1c2ccccc2C=NN1C(=O)/C=C/c1cc(Cc2c(N)nc(N)nc2CC)cc(OC)c1OC (stereo not shown)
4000 µg/mL

Provide MIC (Minimum Inhibitory Concentration), recorded with B. anthracis Sterne, of CCCc1nc(N)nc(N)c1Cc1cc(/C=C/C(=O)N2N=Cc3ccccc3C2C=C(C)C)c(OC)c(OC)c1 (stereo not shown)
2000 µg/mL
